Recorded self-cleavage by entry
B1: Osa-1-4 twister ribozyme (parent)
chain: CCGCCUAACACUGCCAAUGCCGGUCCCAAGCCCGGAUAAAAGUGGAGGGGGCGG

variants of: B1; test: self-cleavage, relative activity (ratio to wild type); higher = more cleavage; co-transcriptional
Answer using only a numeral; do not append any unit.

# count of solved cases: 4
- CCGCCUAACAUUGCCAAUGCCGGGCCCAAGCCCGGAUAAAAGUGGAGGGGGCGG [C11U U24G]: 0.06
- CCGCCUAACACUGCAAAUGCCAGUCCCAAGCCCGGAUAAAAGUGGAGGGGGCGG [C15A G22A]: 0.2
- CCGCCUAACACUGCCAAUGCCGGUCCCAAGCCCGGAUAAAAGUUGAUGGGGCGG [G44U G47U]: 0.1
- CCGCCUAACACUGCCAGUGCCGGUCUCAAGCCCGGAUAAAAGUGGAGGGGGCGG [A17G C26U]: 0.88

Entry under test: CCGCCUAACACUGCCAAUGCCGGUCCCAAGCCAGGAUAAAAGUGGAGGGAGCGG [C33A G50A] . Its self-cleavage was 0.1

Entry under test: CCGCCUAAUACUGCCAAUGCCGGUACCAAGCCCGGAUAAAAGUGGAGGGGGCGG [C25A C9U] . Its self-cleavage was 0.06

Entry under test: CCGCCUAACACUGCCAAUGCCGGUCCUAAGCCCGGAUAAAAGUGGAGAGGGCGG [C27U G48A] . Its self-cleavage was 0.04

Entry under test: CCGCCUAACACUGCAAAUGCAGGUCCCAAGCCCGGAUAAAAGUGGAGGGGGCGG [C15A C21A] . Its self-cleavage was 0.15

Entry under test: CCGCCUAACACUGCCAAUGCCGGUCCCAAGUCCGGAUAAAAGUGAAGGGGGCGG [C31U G45A] . Its self-cleavage was 0.04

Entry under test: CCGCCUAACACUGCCAAUGCCGGGCCCAAGCCCCGAUAAAAGUGGAGGGGGCGG [G34C U24G] . Its self-cleavage was 0.02

Entry under test: CCGCCUAACACUGCAAAUGCCGGUCCCAAGCCCGGAUACAAGUGGAGGGGGCGG [A39C C15A] . Its self-cleavage was 0.23

Entry under test: CCGCCUAACACUGCCAAUGCCGGUCCCAACCCCGGAUAAAAGUCGAGGGGGCGG [G30C G44C] . Its self-cleavage was 0.04
